- system_name: human orexin-2 receptor (Homo sapiens (Human), UniProt O43614)
- Sequence (O43614 whole entry): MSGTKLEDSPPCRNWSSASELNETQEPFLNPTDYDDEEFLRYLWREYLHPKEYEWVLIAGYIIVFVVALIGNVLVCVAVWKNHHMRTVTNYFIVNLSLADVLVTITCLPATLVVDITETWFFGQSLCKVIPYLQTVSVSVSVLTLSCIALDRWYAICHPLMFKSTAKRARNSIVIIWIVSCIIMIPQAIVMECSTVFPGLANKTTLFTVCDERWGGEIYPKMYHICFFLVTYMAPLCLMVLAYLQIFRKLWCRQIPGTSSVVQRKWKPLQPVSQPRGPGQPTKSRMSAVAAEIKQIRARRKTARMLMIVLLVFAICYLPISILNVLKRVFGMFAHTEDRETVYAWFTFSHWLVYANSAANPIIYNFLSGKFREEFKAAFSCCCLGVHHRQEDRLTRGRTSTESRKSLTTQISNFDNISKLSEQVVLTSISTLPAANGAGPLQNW
- method_summary: Human orexin 2 receptor radioligand binding ([3H]-EMPA competition)
- condition_parameters: HEK293 cells stably expressing human orexin-2 receptor; [3H]-EMPA 5 nM final; apparent Ki=IC50/(1+C/Kd), Kd=2 nM; read-out: OR 2 Ki
pKi: −log10 of the molar value.
reported_endpoint: pKi

>>> measured_result("COc1ccnc(N2CC3CN(C(=O)c4ccccc4-n4nccn4)CC3C2)n1 (centres unmarked) [Example 156]")
7.41
>>> measured_result("Cc1cnc(C)c(N2CC3CN(C(=O)c4ccc(F)cc4-n4nccn4)CC3C2)n1 (centres unmarked) [Example 104]")
7.38
>>> measured_result("Cc1ccc(-n2nccn2)c(C(=O)N2CC3CN(c4cncc(C)n4)CC3C2)c1 (centres unmarked) [Example 100]")
6.62

A. O=C(c1ccccc1-c1cccs1)N1CC2CN(c3ncccc3C(F)(F)F)CC2C1 (centres unmarked) [Example 140]
B. Cc1cc(C)nc(N2CC3CN(C(=O)c4ncccc4-c4ccccc4)CC3C2)n1 (centres unmarked) [Example 208]
Incoming: Between A and B , which one shows the larger pKi value? Please identify the chosen entry by its label.
Outgoing: A
(A: 6.92, B: 5.68)

1. Cc1cnc(C)c(N2CC3CN(C(=O)c4cc(F)ccc4-c4ncccn4)CC3C2)n1 (centres unmarked) [Example 212]
2. COc1cc(OC)nc(N2CC3CN(C(=O)c4cc(F)ccc4-c4ncccn4)CC3C2)n1 (centres unmarked) [Example 71]
Incoming: Between 1 and 2 , which one shows the larger pKi value? Please identify the chosen entry by its label.
Outgoing: 1
(1: 7.48, 2: 6.00)
